- tgt: T1, Sul7s D3A (Sulfolobus islandicus Rey15A, UniProt F0NBY5 1-59, D3A)
- T1 sequence: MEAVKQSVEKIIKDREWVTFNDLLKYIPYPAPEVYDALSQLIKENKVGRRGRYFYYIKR
- assay_info: BLI; BLI: 50 mM Tris-Cl pH 7.5, 100 mM NaCl, 1 mM EDTA, 0.02% Tween-20, 30 C; NMR: 20 mM potassium phosphate pH 7.0, 30 mM NaCl, 0.02% NaN3, 298 K
- assay_context: protein: recombinant; tags: untagged; label: 5'-biotin
value_kind: Kd (µM)
Could you give me the number in µM? Just the number is fine.

Consider the binder TTTCTACCCTTTGGTGCTAATGCCCATACT (ssDNA) [S30 (S30-F)] and give its measured Kd.
6.01
